assay: Selectivity index, ratio of IC50 for rat L6 cells to IC50 for Trypanosoma cruzi Tulahuen C4 amastigotes harboring LacZ infected in rat L6 cells; format: toxicity, cell-based; conditions: read-out: Ratio IC50
measure: selectivity ratio
Write the value as a bare number.

Requested read-out: selectivity ratio. Entry: "C=CC1=C[C@@H]2[C@H]3C(C)=CO[C@]45O[C@]67CCCC(C)(C)[C@@H]6CC[C@](C1)(C(=O)[C@]3(C(C)C)C4=O)[C@]25C7"
0.9

Entry "CC1=C2C[C@@H]3C(C)(C)O[C@]45O[C@@]4(C(C)C)C(=O)[C@]4(CC[C@H]6C(C)(C)CCC[C@]67C[C@]24[C@]35O7)CC1=O" has what selectivity ratio?
6.3

I would be grateful if you could share the reported selectivity ratio for "CC(C)C1=C2OC(C)(C)[C@H]3C[C@@]45O[C@]4(C)[C@H](O)C[C@@]4(CC[C@H]6C(C)(C)CCC[C@]67C[C@@]45[C@@]23O7)C1=O" .
2.4

Given the molecule "CC1=C2[C@H](O)[C@@H]3C(C)(C)OC4=C(C(C)C)C(=O)[C@]5(CC[C@H]6C(C)(C)CCC[C@]67C[C@]25[C@@]43O7)CC1=O" , what is its reported selectivity ratio?
3.6

Data request, read-out selectivity ratio, for "CC1=C2C[C@@H]3C(C)(C)OC4=C(C(C)C)C(=O)[C@]5(CC[C@H]6C(C)(C)CCC[C@]67C[C@]25[C@@]43O7)CC1=O"
10.7

Would you mind telling me what selectivity ratio value was observed for "CC(C)=C[C@H]1[C@@H]2C(C)=CC[C@]34CC[C@H]5C(C)(C)CCC[C@]56C[C@]23[C@@](O)(O6)C(=O)[C@]1(C(C)C)C4=O" ?
1.3

Endpoint output: selectivity ratio of "CC(=O)[C@@]12C[C@H]3C(C)(C)OC4=C(C(C)C)C(=O)[C@]5(CC[C@H]6C(C)(C)CCC[C@]67C[C@@]51[C@@]43O7)C[C@H]2O" . Value?
1.2

Data credit: ChEMBL document CHEMBL4382273
